Every entry's value here was drawn from paper PMC5762315.

Molecular target: MUSK (Homo sapiens, UniProt O15146)
Sequence (O15146 24-869): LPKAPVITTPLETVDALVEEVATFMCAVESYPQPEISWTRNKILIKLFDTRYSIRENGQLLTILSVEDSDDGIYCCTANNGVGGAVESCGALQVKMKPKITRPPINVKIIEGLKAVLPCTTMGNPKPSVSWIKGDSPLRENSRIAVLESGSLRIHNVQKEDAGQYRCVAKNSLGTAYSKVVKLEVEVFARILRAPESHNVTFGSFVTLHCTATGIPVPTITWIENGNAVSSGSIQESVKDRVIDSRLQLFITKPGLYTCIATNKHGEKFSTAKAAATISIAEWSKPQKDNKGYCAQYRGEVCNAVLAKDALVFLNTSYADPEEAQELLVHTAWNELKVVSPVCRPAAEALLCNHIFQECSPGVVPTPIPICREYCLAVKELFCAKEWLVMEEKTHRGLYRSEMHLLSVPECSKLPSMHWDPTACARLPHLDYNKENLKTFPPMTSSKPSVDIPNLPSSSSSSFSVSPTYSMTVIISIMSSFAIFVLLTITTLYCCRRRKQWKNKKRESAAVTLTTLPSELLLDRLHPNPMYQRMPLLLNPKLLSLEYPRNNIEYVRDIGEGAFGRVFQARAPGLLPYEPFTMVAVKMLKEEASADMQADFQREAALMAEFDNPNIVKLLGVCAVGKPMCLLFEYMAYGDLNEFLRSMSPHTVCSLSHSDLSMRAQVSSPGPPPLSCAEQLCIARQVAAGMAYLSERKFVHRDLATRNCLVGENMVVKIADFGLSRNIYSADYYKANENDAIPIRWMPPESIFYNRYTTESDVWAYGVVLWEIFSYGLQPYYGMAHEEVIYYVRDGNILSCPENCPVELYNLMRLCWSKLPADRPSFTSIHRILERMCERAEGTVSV
MEASURED ATTRIBUTE: IC50 (nM)
One number for each entry, in nM.

In: Name the recorded IC50 for COc1ccc2c(c1)[C@]1(C[C@H]1c1ccc3c(/C=C/c4ccc(CN5C[C@@H](C)O[C@@H](C)C5)cc4)n[nH]c3c1)C(=O)N2 .
Out: 48.7

====

Molecular target: hERG K+ channel (Homo sapiens, UniProt Q12809)
Sequence (Q12809 whole entry): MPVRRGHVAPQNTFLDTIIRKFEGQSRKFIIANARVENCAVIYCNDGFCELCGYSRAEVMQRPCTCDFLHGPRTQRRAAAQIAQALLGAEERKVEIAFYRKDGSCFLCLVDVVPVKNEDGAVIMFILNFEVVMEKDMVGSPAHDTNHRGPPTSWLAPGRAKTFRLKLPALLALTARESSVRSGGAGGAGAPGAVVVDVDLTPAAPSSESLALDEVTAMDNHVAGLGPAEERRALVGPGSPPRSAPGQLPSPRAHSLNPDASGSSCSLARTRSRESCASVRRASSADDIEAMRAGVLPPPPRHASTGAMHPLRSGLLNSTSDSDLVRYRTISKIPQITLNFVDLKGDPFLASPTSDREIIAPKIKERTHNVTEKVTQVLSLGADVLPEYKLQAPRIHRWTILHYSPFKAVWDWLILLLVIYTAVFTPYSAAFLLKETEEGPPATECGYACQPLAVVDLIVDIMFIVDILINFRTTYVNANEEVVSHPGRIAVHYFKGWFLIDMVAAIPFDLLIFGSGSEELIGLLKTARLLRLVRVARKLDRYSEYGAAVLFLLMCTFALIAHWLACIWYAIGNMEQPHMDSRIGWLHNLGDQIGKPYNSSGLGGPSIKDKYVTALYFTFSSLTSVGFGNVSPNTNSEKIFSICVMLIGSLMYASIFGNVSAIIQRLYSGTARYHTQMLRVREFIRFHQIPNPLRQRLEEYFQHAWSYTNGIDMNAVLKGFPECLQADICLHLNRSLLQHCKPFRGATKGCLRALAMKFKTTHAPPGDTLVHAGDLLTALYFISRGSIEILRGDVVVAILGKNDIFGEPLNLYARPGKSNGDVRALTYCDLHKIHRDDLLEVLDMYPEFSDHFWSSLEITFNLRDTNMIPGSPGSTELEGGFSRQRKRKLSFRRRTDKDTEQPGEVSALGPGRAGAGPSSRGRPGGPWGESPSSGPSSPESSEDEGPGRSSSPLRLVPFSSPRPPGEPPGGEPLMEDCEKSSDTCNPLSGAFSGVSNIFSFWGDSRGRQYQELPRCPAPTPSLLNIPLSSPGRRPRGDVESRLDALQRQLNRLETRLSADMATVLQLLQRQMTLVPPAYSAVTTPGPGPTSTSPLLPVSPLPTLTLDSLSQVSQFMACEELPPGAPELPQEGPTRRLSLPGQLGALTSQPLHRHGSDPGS
Experiment: biochemical
pIC50: −log10 of the molar value.
MEASURED ATTRIBUTE: pIC50

In: Requested read-out: pIC50. Entry: COc1ccc2c(c1)[C@]1(C[C@H]1c1ccc3c(/C=C/c4ccc(CN5C[C@@H](C)O[C@@H](C)C5)cc4)n[nH]c3c1)C(=O)N2
Out: < 6.30

====

Experiment: Brain to plasma ratio (B:P), LC-MS/MS
Type: in vivo, male CD-1 mice
Details: male, CD-1, mouse, brain / plasma, po, 7.5 mg/kg, 4 hours post-dose, fasted male CD-1 mice, triplicates, read-out: Average Raw B:P Ratio
MEASURED ATTRIBUTE: Kp at 4 h

In: Reported Kp at 4 h, compound COc1ccc2c(c1)[C@]1(C[C@H]1c1ccc3c(/C=C/c4ccc(CN5C[C@@H](C)O[C@@H](C)C5)cc4)n[nH]c3c1)C(=O)N2 : ____
Out: ~0.08

====

Molecular target: DDR2 (Homo sapiens)
Sequence (Q16832 22-855): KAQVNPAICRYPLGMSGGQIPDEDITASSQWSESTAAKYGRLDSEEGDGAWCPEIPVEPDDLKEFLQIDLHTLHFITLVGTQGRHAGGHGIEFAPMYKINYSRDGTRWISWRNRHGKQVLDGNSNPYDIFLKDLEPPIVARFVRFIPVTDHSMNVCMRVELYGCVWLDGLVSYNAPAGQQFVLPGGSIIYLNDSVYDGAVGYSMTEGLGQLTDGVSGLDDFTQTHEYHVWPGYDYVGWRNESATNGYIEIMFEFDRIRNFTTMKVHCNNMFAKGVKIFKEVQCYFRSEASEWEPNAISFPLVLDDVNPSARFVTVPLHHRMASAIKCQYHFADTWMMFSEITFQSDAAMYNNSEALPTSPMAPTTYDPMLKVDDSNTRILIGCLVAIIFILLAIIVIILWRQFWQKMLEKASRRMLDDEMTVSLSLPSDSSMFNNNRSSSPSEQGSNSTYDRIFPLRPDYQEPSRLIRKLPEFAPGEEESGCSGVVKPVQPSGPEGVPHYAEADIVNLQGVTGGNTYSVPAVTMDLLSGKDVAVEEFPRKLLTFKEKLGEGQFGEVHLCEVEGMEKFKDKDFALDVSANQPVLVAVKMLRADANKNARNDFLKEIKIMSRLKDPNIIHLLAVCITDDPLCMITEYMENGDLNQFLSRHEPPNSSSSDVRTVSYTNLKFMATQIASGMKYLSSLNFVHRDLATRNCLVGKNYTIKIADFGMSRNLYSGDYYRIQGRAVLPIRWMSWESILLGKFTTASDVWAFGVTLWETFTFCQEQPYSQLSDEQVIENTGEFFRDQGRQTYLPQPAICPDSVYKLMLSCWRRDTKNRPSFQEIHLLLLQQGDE
MEASURED ATTRIBUTE: IC50 (nM)
Numbers only, in nM.

In: Param readout= IC50; system= DDR2 (Homo sapiens); entry= COc1ccc2c(c1)[C@]1(C[C@H]1c1ccc3c(/C=C/c4ccc(CN5C[C@@H](C)O[C@@H](C)C5)cc4)n[nH]c3c1)C(=O)N2 ; returns value.
Out: 315

====

Protein target, amino acids: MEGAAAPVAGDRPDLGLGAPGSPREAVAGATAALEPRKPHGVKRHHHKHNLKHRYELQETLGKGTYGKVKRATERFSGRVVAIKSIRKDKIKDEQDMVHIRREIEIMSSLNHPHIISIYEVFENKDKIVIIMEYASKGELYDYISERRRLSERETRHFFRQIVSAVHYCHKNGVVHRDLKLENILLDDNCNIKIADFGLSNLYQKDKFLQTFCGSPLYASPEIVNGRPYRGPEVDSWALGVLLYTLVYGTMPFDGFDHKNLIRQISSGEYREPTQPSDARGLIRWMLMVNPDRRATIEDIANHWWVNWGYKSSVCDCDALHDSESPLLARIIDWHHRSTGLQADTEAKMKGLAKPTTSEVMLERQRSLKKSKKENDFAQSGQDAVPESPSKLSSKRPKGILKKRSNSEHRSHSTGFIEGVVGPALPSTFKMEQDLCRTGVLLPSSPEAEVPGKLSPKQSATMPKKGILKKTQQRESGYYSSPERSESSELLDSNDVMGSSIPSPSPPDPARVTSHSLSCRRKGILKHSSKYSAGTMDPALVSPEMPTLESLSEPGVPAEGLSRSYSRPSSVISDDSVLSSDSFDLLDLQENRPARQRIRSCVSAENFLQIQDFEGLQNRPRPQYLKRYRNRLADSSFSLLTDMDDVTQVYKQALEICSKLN
MEASURED ATTRIBUTE: IC50 (nM)
Answers are plain numbers, in nM.

In: # input compound: COc1ccc2c(c1)[C@]1(C[C@H]1c1ccc3c(/C=C/c4ccc(CN5C[C@@H](C)O[C@@H](C)C5)cc4)n[nH]c3c1)C(=O)N2 ; wanted: its IC50
Out: 272

====

Experiment: Brain to plasma ratio (B:P), LC-MS/MS
Format: in vivo, male CD-1 mice
Conditions: male, CD-1, mouse, plasma, po, 7.5 mg/kg, 4 hours post-dose, plasma density assumed 1 g/mL, individual mice #355, 356, 357, read-out: Plasma Conc.
MEASURED ATTRIBUTE: concentration at 4 h (ng/g)
Numbers only, in ng/g.

In: Give the measured concentration at 4 h of COc1ccc2c(c1)[C@]1(C[C@H]1c1ccc3c(/C=C/c4ccc(CN5C[C@@H](C)O[C@@H](C)C5)cc4)n[nH]c3c1)C(=O)N2 [CFI-400945] .
Out: 498

====

Target: TEK (Homo sapiens, UniProt Q02763, Y1108F)
Sequence (Q02763 771-1124 Y1108F): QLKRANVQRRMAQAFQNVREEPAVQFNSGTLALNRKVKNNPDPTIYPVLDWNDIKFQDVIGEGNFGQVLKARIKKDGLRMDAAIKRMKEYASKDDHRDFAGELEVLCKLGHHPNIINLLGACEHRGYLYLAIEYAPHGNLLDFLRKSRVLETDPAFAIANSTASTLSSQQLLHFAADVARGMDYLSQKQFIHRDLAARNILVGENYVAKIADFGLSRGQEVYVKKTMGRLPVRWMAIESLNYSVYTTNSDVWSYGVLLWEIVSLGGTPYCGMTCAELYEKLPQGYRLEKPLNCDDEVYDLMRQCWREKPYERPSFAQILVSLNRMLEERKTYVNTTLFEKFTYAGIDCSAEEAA
Test: Kinase activity screening (SelectScreen), TEK
MEASURED ATTRIBUTE: IC50

In: So what IC50 did COc1ccc2c(c1)[C@]1(C[C@H]1c1ccc3c(/C=C/c4ccc(CN5C[C@@H](C)O[C@@H](C)C5)cc4)n[nH]c3c1)C(=O)N2 get with TEK (Homo sapiens, UniProt Q02763, Y1108F)?
Out: 109 nM

====

Molecular target: various kinases (Homo sapiens, UniProt P00519, T315I)
Test: biochemical
Conditions: ABL1 T315I
MEASURED ATTRIBUTE: IC50 (nM)
Answers are plain numbers, in nM.

In: IC50 for COc1ccc2c(c1)[C@]1(C[C@H]1c1ccc3c(/C=C/c4ccc(CN5C[C@@H](C)O[C@@H](C)C5)cc4)n[nH]c3c1)C(=O)N2 [CFI-400945] ?
Out: 27.2

====

Target: various kinases (Homo sapiens, UniProt P36888)
Sequence (P36888 27-993): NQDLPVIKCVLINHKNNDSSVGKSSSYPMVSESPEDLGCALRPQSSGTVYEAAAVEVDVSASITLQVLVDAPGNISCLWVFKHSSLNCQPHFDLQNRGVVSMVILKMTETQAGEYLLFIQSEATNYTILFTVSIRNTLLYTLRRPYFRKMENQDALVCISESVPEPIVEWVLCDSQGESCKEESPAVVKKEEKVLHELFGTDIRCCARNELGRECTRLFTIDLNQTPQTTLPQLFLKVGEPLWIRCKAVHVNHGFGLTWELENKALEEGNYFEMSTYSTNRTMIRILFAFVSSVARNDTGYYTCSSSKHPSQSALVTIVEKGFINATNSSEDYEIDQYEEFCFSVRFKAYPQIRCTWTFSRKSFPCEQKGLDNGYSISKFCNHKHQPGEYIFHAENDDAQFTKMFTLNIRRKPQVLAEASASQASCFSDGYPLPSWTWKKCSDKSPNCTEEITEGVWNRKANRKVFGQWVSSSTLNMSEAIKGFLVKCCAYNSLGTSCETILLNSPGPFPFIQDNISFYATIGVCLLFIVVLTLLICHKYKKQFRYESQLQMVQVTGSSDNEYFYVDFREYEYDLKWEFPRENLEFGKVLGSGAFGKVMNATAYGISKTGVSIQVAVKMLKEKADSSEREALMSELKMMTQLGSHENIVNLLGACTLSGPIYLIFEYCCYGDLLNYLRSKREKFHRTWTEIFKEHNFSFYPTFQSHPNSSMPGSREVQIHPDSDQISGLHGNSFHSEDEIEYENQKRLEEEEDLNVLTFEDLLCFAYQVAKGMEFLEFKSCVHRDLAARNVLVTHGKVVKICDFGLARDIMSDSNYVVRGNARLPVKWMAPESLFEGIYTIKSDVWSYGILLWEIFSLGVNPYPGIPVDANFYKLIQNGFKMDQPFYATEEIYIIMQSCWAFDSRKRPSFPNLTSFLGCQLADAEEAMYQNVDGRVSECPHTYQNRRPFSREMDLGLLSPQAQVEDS
MEASURED ATTRIBUTE: IC50 (nM)
One number for each entry, in nM.

In: What measured IC50 goes with COc1ccc2c(c1)[C@]1(C[C@H]1c1ccc3c(/C=C/c4ccc(CN5C[C@@H](C)O[C@@H](C)C5)cc4)n[nH]c3c1)C(=O)N2 [CFI-400945] ?
Out: 59.7
